Source of measurements: the Deep4Chem optical property database

Method Description: solvent given as SMILES
Assay Setup: in c1ccc2c(c1)c1ccccc1n2-c1ccc(-c2ccc(-n3c4ccccc4c4ccccc43)cc2)cc1
Readout Type: emission maximum (nm)
Write down the numeric answer in nm and omit the unit.

O=P1(c2ccccc2)c2ccc(N3c4ccccc4Oc4ccccc43)cc2-c2cc(N3c4ccccc4Oc4ccccc43)ccc21 :: 551

Request: Returns the measured emission maximum for the input compound. Input: c1ccc2c(c1)c1ccccc1n2-c1ccc(-c2cc3ccc(-c4ccc5cc(-c6ccc(-n7c8ccccc8c8ccccc87)cc6)oc5c4)cc3o2)cc1
Result: 419

Request: Record: Cc1cc(C)c(B(c2c(C)cc(C)cc2C)c2c(C)cc(N3c4ccccc4Oc4ccccc43)cc2C)c(C)c1
Result: 504

Request: Record: N#Cc1cc(N2c3ccccc3Oc3ccccc32)c(N2c3ccccc3Oc3ccccc32)cc1C#N
Result: 612
